Data provenance: paper PMC9188596

# Measured On: AtAHAS P197L mutant (Arabidopsis thaliana, UniProt P17597, P197L)
# Assay Overview: biochemical
# Experimental Context: Ki, P197L mutant; ± standard error of the mean
Ki values by entry
Answer with the number, then the unit.

Worked examples, 5 compounds total:
1) COc1cc(OC)nc(NC(=O)NS(=O)(=O)N(C)S(C)(=O)=O)n1; 93.5 µM
2) CC(C)C1(C)N=C(c2nc3ccccc3cc2C(=O)O)NC1=O (stereo not drawn); 13.8 µM
3) COc1cc(OC)nc(Sc2cccc(Cl)c2C(=O)O)n1; 2 µM
4) COc1cc(OC)nc(Oc2cccc(Oc3nc(OC)cc(OC)n3)c2C(=O)O)n1; 0.115 µM
5) COc1cc(OC)n2nc(S(=O)(=O)Nc3c(Cl)ccc(C)c3Cl)nc2n1; 1.32 µM

Consider the record given below.
Input: Consider the compound COc1cnc(OC)n2nc(NS(=O)(=O)c3c(OCC(F)F)cccc3C(F)(F)F)nc12 tested on AtAHAS P197L mutant (Arabidopsis thaliana, UniProt P17597, P197L); state its Ki.
Output: 0.082 µM

---

# Measured On: AtAHAS P197L mutant (Arabidopsis thaliana, UniProt P17597, P197L)
# Assay Overview: biochemical
# Experimental Context: Ki (Supplementary Figure 6), P197L; fit of % activity remaining vs [I]; two independent replicates
# Method: Standard assays were performed using a continuous spectrophotometric method measuring the disappearance of pyruvate. The standard buffer contained 50 mM potassium phosphate, pH 7.2, 1 mM ThDP, 10 mM MgCl2, and 10 µM FAD. The concentration of pyruvate was in the range 100–160 mM, as described in the text, methods, or figure legends. Supplementary Figure 6. Measurement of the Ki values for WT AtAHAS and the mutants. The error bars represent the standard error of the mean of two independent replicates. […]
Ki values by entry
Quick note: give the figure in nM, leave out the unit.

Worked examples, 5 compounds total:
1. CC(C)C1(C)N=C(c2nc3ccccc3cc2C(=O)O)NC1=O (stereo not drawn); 13800
2. COc1cc(OC)nc(NC(=O)NS(=O)(=O)N(C)S(C)(=O)=O)n1; 93500
3. COc1cc(OC)n2nc(S(=O)(=O)Nc3c(Cl)ccc(C)c3Cl)nc2n1; 1320
4. COc1cc(OC)nc(Sc2cccc(Cl)c2C(=O)O)n1; 1950
5. COc1cc(OC)nc(Oc2cccc(Oc3nc(OC)cc(OC)n3)c2C(=O)O)n1; 115

Input: Fill in Ki for record COc1cnc(OC)n2nc(NS(=O)(=O)c3c(OCC(F)F)cccc3C(F)(F)F)nc12
Output: 81.9

---

# Measured On: AtAHAS S653T mutant (Arabidopsis thaliana, UniProt P17597, S653T)
# Assay Overview: biochemical
# Experimental Context: Ki (Supplementary Figure 6), S653T; fit of % activity remaining vs [I]; two independent replicates
Assay Readout: pKi
Interpret pKi as the negative base-10 log of the concentration measured in mol/L.

Worked examples, 3 molecules total:
1) COc1cnc(OC)n2nc(NS(=O)(=O)c3c(OCC(F)F)cccc3C(F)(F)F)nc12; 8.30
2) CC(C)C1(C)N=C(c2nc3ccccc3cc2C(=O)O)NC1=O (stereo not shown); 3.62
3) COc1cc(OC)nc(Sc2cccc(Cl)c2C(=O)O)n1; 6.66

Consider the record given below.
Input: Consider the molecule COc1cc(OC)n2nc(S(=O)(=O)Nc3c(Cl)ccc(C)c3Cl)nc2n1 tested on AtAHAS S653T mutant (Arabidopsis thaliana, UniProt P17597, S653T); state its pKi.
Output: 7.18

---

# Measured On: AtAHAS W574L mutant (Arabidopsis thaliana, UniProt P17597, W574L)
# Type: biochemical
# Experimental Context: 160 mM pyruvate, 30 °C, NAI = no accumulative inhibition detected
Assay Readout: k3 (rate of recovery)

1) COc1cc(OC)nc(Oc2cccc(Oc3nc(OC)cc(OC)n3)c2C(=O)O)n1 [BS, bispyribac]; <1e-12 min⁻¹
2) CC(C)C1(C)N=C(c2nc3ccccc3cc2C(=O)O)NC1=O (stereo not shown) [IQ, imazaquin]; NAI
3) COc1cnc(OC)n2nc(NS(=O)(=O)c3c(OCC(F)F)cccc3C(F)(F)F)nc12 [PS, penoxsulam]; NAI
4) COc1cc(OC)nc(NC(=O)NS(=O)(=O)N(C)S(C)(=O)=O)n1 [AS, amidosulfuron]; NAI

---

# Measured On: AtAHAS P197T mutant (Arabidopsis thaliana, UniProt P17597, P197T)
# Type: biochemical
# Experimental Context: P197T; 160 mM pyruvate, 30 °C; NAI = no accumulative inhibition detected
Assay Readout: k3 (rate of recovery)

1) CC(C)C1(C)N=C(c2nc3ccccc3cc2C(=O)O)NC1=O (stereo not shown) [IQ, imazaquin]; <1e-12 min⁻¹
2) COc1cc(OC)nc(Oc2cccc(Oc3nc(OC)cc(OC)n3)c2C(=O)O)n1 [BS, bispyribac]; 0.031 ± 0.004 min⁻¹
3) COc1cc(OC)nc(NC(=O)NS(=O)(=O)N(C)S(C)(=O)=O)n1 [AS, amidosulfuron]; NAI
4) COc1cnc(OC)n2nc(NS(=O)(=O)c3c(OCC(F)F)cccc3C(F)(F)F)nc12 [PS, penoxsulam]; NAI

---

# Measured On: AtAHAS P197T mutant (Arabidopsis thaliana, UniProt P17597, P197T)
# Assay Overview: biochemical
# Experimental Context: Ki (Supplementary Figure 6), P197T; fit of % activity remaining vs [I]; two independent replicates
pKi values by entry
Interpret pKi as the negative base-10 log of the concentration measured in mol/L.

Worked examples, 4 compounds total:
1. COc1cc(OC)nc(Oc2cccc(Oc3nc(OC)cc(OC)n3)c2C(=O)O)n1; 6.98
2. COc1cc(OC)n2nc(S(=O)(=O)Nc3c(Cl)ccc(C)c3Cl)nc2n1; 5.95
3. COc1cc(OC)nc(Sc2cccc(Cl)c2C(=O)O)n1; 5.84
4. CC(C)C1(C)N=C(c2nc3ccccc3cc2C(=O)O)NC1=O (centres unmarked); 4.91

Input: Fill in pKi for record COc1cc(OC)nc(NC(=O)NS(=O)(=O)N(C)S(C)(=O)=O)n1
Output: 4.21

---

# Measured On: AtAHAS S653T mutant (Arabidopsis thaliana, UniProt P17597, S653T)
# Assay type: biochemical
# Experimental Context: S653T; 160 mM pyruvate, 30 °C; ± SEM
k3 (rate of recovery) values by entry
Quick note: give the figure in min⁻¹, leave out the unit.

Worked examples, 2 compounds total:
1) COc1cc(OC)nc(Oc2cccc(Oc3nc(OC)cc(OC)n3)c2C(=O)O)n1 [BS, bispyribac]; 0.017
2) COc1cnc(OC)n2nc(NS(=O)(=O)c3c(OCC(F)F)cccc3C(F)(F)F)nc12 [PS, penoxsulam]; 0.015

Consider the record given below.
Input: Fill in k3 (rate of recovery) for record COc1cc(OC)nc(NC(=O)NS(=O)(=O)N(C)S(C)(=O)=O)n1 [AS, amidosulfuron]
Output: 0.02

---

# Measured On: AtAHAS W574L mutant (Arabidopsis thaliana, UniProt P17597, W574L)
# Format: biochemical
# Experimental Context: 160 mM pyruvate, 30 °C, NAI = no accumulative inhibition detected
Assay Readout: kiapp (apparent rate of enzyme inactivation)

1. COc1cc(OC)nc(NC(=O)NS(=O)(=O)N(C)S(C)(=O)=O)n1; NAI
2. CC(C)C1(C)N=C(c2nc3ccccc3cc2C(=O)O)NC1=O (stereo not shown); NAI
3. COc1cnc(OC)n2nc(NS(=O)(=O)c3c(OCC(F)F)cccc3C(F)(F)F)nc12; NAI
4. COc1cc(OC)nc(Oc2cccc(Oc3nc(OC)cc(OC)n3)c2C(=O)O)n1; 0.03 ± 0.006 min⁻¹

---

# Measured On: AtAHAS P197T mutant (Arabidopsis thaliana, UniProt P17597, P197T)
# Assay Overview: biochemical
# Experimental Context: Ki, P197T mutant; ± standard error of the mean
Assay Readout: pKi
Interpret pKi as the negative base-10 log of the concentration measured in mol/L.

1. COc1cnc(OC)n2nc(NS(=O)(=O)c3c(OCC(F)F)cccc3C(F)(F)F)nc12; 7.07
2. CC(C)C1(C)N=C(c2nc3ccccc3cc2C(=O)O)NC1=O (stereo not drawn); 4.91
3. COc1cc(OC)nc(Sc2cccc(Cl)c2C(=O)O)n1; 5.82
4. COc1cc(OC)n2nc(S(=O)(=O)Nc3c(Cl)ccc(C)c3Cl)nc2n1; 5.95

Input: Fill in pKi for record COc1cc(OC)nc(NC(=O)NS(=O)(=O)N(C)S(C)(=O)=O)n1
Output: 4.21

Input: Fill in pKi for record COc1cc(OC)nc(Oc2cccc(Oc3nc(OC)cc(OC)n3)c2C(=O)O)n1
Output: 6.97
